Overview of recorded log10 IC50 for various sequences
- Target Of Assay: HLA-DPB1*0402 (Homo sapiens, UniProt P04440+P20036, A65V/A84D/A85E/L207M)
- Sequence (P04440 30-258 A65V/A84D/A85E): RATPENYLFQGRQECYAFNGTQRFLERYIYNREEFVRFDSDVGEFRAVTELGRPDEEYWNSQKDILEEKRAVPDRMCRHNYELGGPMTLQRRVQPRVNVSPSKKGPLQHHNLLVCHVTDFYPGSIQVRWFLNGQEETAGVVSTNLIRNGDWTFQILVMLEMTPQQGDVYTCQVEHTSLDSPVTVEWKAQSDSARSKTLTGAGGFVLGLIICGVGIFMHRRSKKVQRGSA
- Sequence (P20036 29-260): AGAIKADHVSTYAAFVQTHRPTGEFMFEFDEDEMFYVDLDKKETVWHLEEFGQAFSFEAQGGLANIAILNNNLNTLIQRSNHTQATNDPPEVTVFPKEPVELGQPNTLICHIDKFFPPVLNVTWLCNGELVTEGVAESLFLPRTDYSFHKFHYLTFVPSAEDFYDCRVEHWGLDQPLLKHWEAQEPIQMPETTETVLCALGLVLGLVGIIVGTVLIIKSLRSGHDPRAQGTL
- Experimental Details: biochemical
- Type: binding
Where no end group is shown, it is not given here.
Hello, just confirming the data are log10 of IC50 with units of µM.

Worked cases, log10 IC50 given:
[
  {
    "Residue String": "FDRSTKVIDFHYPNE",
    "Recorded Metric": "log10 IC50",
    "Measured Value": 1.48
  },
  {
    "Residue String": "TPTEKDEYCARVNH",
    "Recorded Metric": "log10 IC50",
    "Measured Value": 1.15
  }
]

Query block: Fill in log10 IC50 for record DTLRSYYADWYQQKPG
Result block: 0.19

Query block: Give the measured log10 IC50 for EEVDMTPADALDDFD
Result block: 1.41

Query block: For the sequence RSQPGLCNMYKDSHHPARTA , give its reported log10 IC50.
Result block: 0.89

Query block: Give log10 IC50 for the following sequence: FFLLTRILTIPQSLD
Result block: -2.92

Query block: Supply reported log10 IC50 belonging to this sequence: SDVGEFRAVTELG
Result block: 0.61

Query block: Dear colleague, please send me the reported log10 IC50 for DKKETVWHLE when you can.
Result block: 0.57

Query block: Tell me its log10 IC50 given DVKFPGGGQIVGGVYLLPRR as the entry.
Result block: -1.48

Query block: Read the entry INEPTAAAIAYGLDR and write its reported log10 IC50.
Result block: 1.06

Query block: Supply log10 IC50 value. Item: NNKYAASSYLSLTPE
Result block: -1.38

Query block: Given CDGERPTLAFLQDVM , respond with its log10 IC50.
Result block: 1.18
